Values compiled from PubChem BioAssay.

# Assay: DUSP6 inhibitors restoring Erk phosphorylation by chemical complementation, primary imaging in DUSP6-transfected HeLa (AID 609)
# Condition Summary: HeLa MKP-3 transfected, phospho-Erk imaging KS statistic; measured here: cell density z-score; at 10 µM; cells stimulated with TPA for 15 min
Property Measured: z-score
Give bare numbers.

# count of solved cases: 10
Cc1cc(C)c(C#N)c(SCC(=O)NC2CC2)n1 | 2.42
CNC[C@H](O)c1cccc(O)c1 | 0.304
CCCOc1ccc(N2C(=O)CC(N(CCC)C(=O)CCC(=O)O)C2=O)cc1 (centres undefined) | -1.24
CCCCc1c(O)nc(SCCN(C)C)n(-c2ccccc2)c1=O | -1.09
c1csc(Cc2nn3c(-c4ccncc4)nnc3s2)c1 | 0.0409
CN(C)c1nc(OCCOC(=O)Nc2ccc(Cl)cc2Cl)nc(N(C)C)n1 | 0.138
Cc1cc(NS(=O)(=O)c2ccc(N)cc2)no1 | -1.02
COc1ccc(Cl)cc1C(=O)NCCc1ccc(S(=O)(=O)NC(=O)NC2CCCCC2)cc1 | 0.545
Cc1noc(NS(=O)(=O)c2ccc(NC(=O)COc3ccccc3)cc2)c1C | -0.876
O=S(=O)(c1cccc2cnccc12)N1CCCNCC1 | -0.577

Can you give me z-score for all of these, one by one?
1. c1ccc(N2CCN(c3nc(-c4ccccn4)nc4ccccc34)CC2)cc1
2. COc1ccc(C(=O)c2sc(NC(C)C)nc2N)cc1OC
3. CCOC(=O)N1CCN(C(=O)c2cn(CC)c3cc(N4CCN(C)CC4)c(F)cc3c2=O)CC1
4. c1ccc(C2Nc3ccccc3-c3nc4ccccc4n32)nc1 (centres undefined)
5. CCOC(=O)CNS(=O)(=O)c1cc(-c2nn(C)c(=O)c3ccccc23)ccc1C
6. ONC(=Nc1ccccc1)C(=Nc1ccccc1)NO
7. N#CCSc1nc2c(cc1C#N)CCCCCC2
8. COc1ccc(C(=O)N2CCC(N3CCN(c4ccccc4)CC3)CC2)cc1OC

Out:
1: -1.22; 2: -0.265; 3: 0.456; 4: -0.673; 5: 1.99; 6: 1.37; 7: 0.833; 8: 1.05

----------
# Assay: DUSP6 inhibitors restoring Erk phosphorylation by chemical complementation, primary imaging in DUSP6-transfected HeLa (AID 609)
# Condition Summary: HeLa MKP-3 transfected, phospho-Erk imaging KS statistic; measured here: nuclear pErk red intensity z-score; at 10 µM; stronger effect = higher value; cells stimulated with TPA for 15 min
Property Measured: z-score
One number for each entry.

Cc1ncc([N+](=O)[O-])n1CC(O)CCl (configuration not stated) | -1.47
O=C1CC(c2ccccc2)NC(=O)N1 (configuration not stated) | 0.572
CCCCc1nc(NCCN2CCOCC2)c(C#N)c2c1COC(C)(C)C2 | -1.06

Can you give me z-score for all of these, one by one?
1. CCOC(=O)c1c(C)n(C)c2ccc(OC)c(NC(=O)CN3CCCCC3)c12
2. CCCCC(C(=O)O)C(C)CC(=O)Nc1cccc(C(=O)O)c1 (configuration not stated)
3. CCOc1cccc(-c2nnc3sc(-c4cccs4)nn23)c1
4. COc1ccc(/C(O)=C2/C(=O)C(=O)N(CCCN(C)C)C2c2ccco2)cc1Cl (configuration not stated)
5. Cc1ccc2[nH]c3c(N4CCCCCC4)ncnc3c2c1
6. COc1ccc(C2C(C#N)=C(N)Oc3n[nH]c(C)c32)cc1CSc1ccccn1 (configuration not stated)
7. N#Cc1nc(-c2cccs2)oc1NCCc1ccccc1
8. CCn1nc(C(=O)O)c(=O)c2cc3c(cc21)OCO3

Out:
[2.07, 0.323, 0.15, -0.259, -0.123, -0.733, -1.02, -0.702]

In: Give me measured z-score, please, for this compound: Cc1ccc(N(CC(=O)O)C2SC(=O)NC2=O)cc1 (configuration not stated)
Out: -1.85

----------
# Assay: inhibitors of E-selectin induction by TNFa, primary screen, imaging, HUVEC, immunofluorescence, MLSMR starter and 10KST1 sets (AID 487);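 also: signal is fraction of cell area covered by stained E-selectin grains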
# Condition Summary: HUVEC TNFalpha-induced E-selectin immunofluorescence imaging, at 2 µM; stronger effect = higher value
Answer each item with its documented inhibition.
Give bare numbers, in %.

Can you give me inhibition for all of these, one by one?
1. CCOC(=O)c1ccc(N=CC2=C(O)CC(c3ccco3)CC2=O)cc1 (stereo not given)
2. CN(C)[C@@H]1C(=O)C(C(N)=O)=C(O)[C@@]2(O)C(=O)C3=C(O)c4c(O)ccc(Cl)c4[C@@H](O)[C@H]3C[C@@H]12

Out:
1. -249
2. -35.1

Can you give me inhibition for all of these, one by one?
1. CNCCC=C1c2ccccc2CCc2ccccc21
2. CCOP(=O)(c1ccccc1)c1nc(-c2ccc(F)cc2)oc1N1CCCCC1 (stereo not given)
3. COc1cccc(C2C(C#N)=C(N)Oc3cc(C)[nH]c(=O)c32)c1OC (stereo not given)
4. COC(=O)c1cc2c(=O)n3cccc(C)c3nc2n(Cc2cccnc2)c1=N

Out:
1: -20.7; 2: -100; 3: -89.8; 4: -113

Can you give me inhibition for all of these, one by one?
1. O=C(O)CN(c1ccccc1)C1SC(=O)NC1=O (stereo not given)
2. COc1cccc(C2/C(=C(\O)c3ccc4c(c3)OCCO4)C(=O)C(=O)N2CCN(C)C)c1 (stereo not given)

Out:
[-50.9, -108]

Can you give me inhibition for all of these, one by one?
1. Cc1c(NC(=O)C(CC(=O)O)NCc2ccco2)c(=O)n(-c2ccccc2)n1C (stereo not given)
2. CCOC(=O)c1cnc(SC2CC(=O)N(c3cccc(OC)c3)C2=O)nc1N (stereo not given)

Out:
[-112, -23.7]

----------
# Assay: inhibitors of E-selectin induction by TNFa, primary screen, imaging, HUVEC, immunofluorescence, MLSMR starter and 10KST1 sets (AID 487);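 also: signal is fraction of cell area covered by stained E-selectin grains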
# Condition Summary: HUVEC TNFalpha-induced E-selectin immunofluorescence imaging, at 2 µM; stronger effect = higher value
Active and inactive are the calls of the source.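 Rule for the calls: active = visually confirmed hit in the image check and inhibition above 20%; inconclusive = visually confirmed hit but inhibition not above 20%; inactive = no visual hit in the image check.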
Property Measured: inhibition

CN1C(=O)c2c(sc3c2CCCC3)NC1c1ccccc1O (stereo not drawn) | -128% (inactive)
CC(C)N=c1cc2n(-c3ccc(Cl)cc3)c3ccccc3nc-2cc1Nc1ccc(Cl)cc1 | -163% (inactive)
CCOc1ccc(Cn2c(O)cc(=O)[nH]c2=O)cc1 | -97.4% (inactive)
CCN1CCCC1Cn1cnc2c([nH]c3ccc(C)cc32)c1=O (stereo not drawn) | 13.2% (inactive)
COCCOCCOCCC(=O)NC1CC2CCC1(C)C2(C)C (stereo not drawn) | 32.9% (inactive)
CSc1nc(N)c(C#N)c(-c2ccccc2Cl)c1C#N | 16.8% (inactive)

Can you give me inhibition for all of these, one by one?
1. CC(C)C1Cc2c(sc3c2c(=O)n(-c2ccccc2)c2nncn32)CO1 (stereo not drawn)
2. CCC1CCCCN1c1nc(-c2ccncc2)nc2ccccc12 (stereo not drawn)
3. O=CNC(=O)c1ccccc1C(=O)O

Out:
["-90.9% (inactive)", "12.1% (inactive)", "-60.7% (inactive)"]

Can you give me inhibition for all of these, one by one?
1. COC(=O)CNc1nc(-c2cccnc2)nc2ccccc12
2. CC(=O)OCC(=O)[C@@]12OC(C)(C)O[C@@H]1C[C@H]1[C@@H]3C[C@H](F)C4=CC(=O)C=C[C@]4(C)[C@@]3(F)[C@@H](O)C[C@@]12C
3. C1CCC(C(CC2CCCCN2)C2CCCCC2)CC1 (stereo not drawn)

Out:
1. -23.5% (inactive)
2. -73.2% (inactive)
3. 0.5% (inactive)

Can you give me inhibition for all of these, one by one?
1. CCC1(C)Cc2c(sc3c2c(=O)n(C)c2nnc(SCC(=O)c4ccc(Cl)cc4)n32)CO1 (stereo not drawn)
2. Nc1nonc1OCCc1ccccc1
3. c1csc(Cc2nn3c(-c4ccncc4)nnc3s2)c1

Out:
1. -61.6% (inactive)
2. -31.5% (inactive)
3. -17.9% (inactive)

----------
# Target Desc: Alpha-2C adrenergic receptor (Homo sapiens)
# Assay: modulators of alpha2C/GIRK thallium flux, primary screen, cell-based, HEK293 alpha2C/GIRK1/2 (AID 624);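 also: slope of fluorescence ratio to pre-addition baseline per second over 15 to 24 s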
# Condition Summary: thallium flux BTC fluorescence, at 10 µM, actives lie on both sides
Active and inactive are the calls of the source.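 Rule for the calls: active = fluorescence slope after compound addition differing from the mean of all screened samples at 99.7% confidence, in either direction; inactive = the rest.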
# output must be one of label 1 = active, label 0 = inactive

Example cases with answers are listed next.
Cc1cccc(COc2ccc(/C(O)=C3\C(=O)C(=O)N(CCN(C)C)C3c3ccncc3)cc2)c1 (stereo unspecified) | label 0
CCOc1ccc(S(=O)(=O)N(C)C)cc1-c1nc2c(C(C)(C)C)nn(C)c2c(=O)[nH]1 | label 0
CCCCCCn1c(C(C)O)nc2ccccc21 (stereo unspecified) | label 0

In: Record request — test call for O=C(c1ccco1)N1CCN(c2ncnc3c2[nH]c2ccccc23)CC1
Out: label 0

In: Record request — test call for CCOC(=O)CSC1=C(C#N)C(c2ccc3c(c2)OCO3)CC(=O)N1 (stereo unspecified)
Out: label 0
